Data provenance is ChEMBL document CHEMBL3997795.

assay.notes: Selectivity index, ratio of CC50 for HFF cells to EC50 for bloodstream form of Trypanosoma congolense IL3000
Format: toxicity
run.parameters: human, read-out: Ratio CC50/EC50
selectivity ratio vs 100: at or above is true, below is false.

input: Entry O=C(OCCCCCCCCCCCCCCCC[P+](c1ccccc1)(c1ccccc1)c1ccccc1)c1ccc(O)cc1O.[Br-] : is its selectivity ratio no less than 100?
output: true

input: Same read-out for O=C(OCCCCCCCCCCCCCC[n+]1cccc2ccccc21)c1ccc(O)cc1O.[Br-] ?
output: false

====

The entries below come with measured selectivity ratio values attached.
assay.notes: Selectivity index, ratio of CC50 for HEK293T cells to EC50 for bloodstream form of Trypanosoma congolense IL3000
Assay type: toxicity
run.parameters: human, read-out: Ratio CC50/EC50
# respond with the number and nothing more

Here is how some compounds turned out for selectivity ratio.
> print(dat)
                            molecule.smiles  recorded.number
1  O=C(OCCCCCCCC[P+](c1ccccc1)(c1ccccc1)c1ccccc1)c1ccc(O)cc1O.[Br-]              1.8
2  BrCCCCCCCCCC[P+](c1ccccc1)(c1ccccc1)c1ccccc1.[Br-]              6.3
3  O=C(OCCCCCCCCCC[P+](c1ccccc1)(c1ccccc1)c1ccccc1)c1ccc(O)cc1O.[Br-]             13.2

Continue with the next compound.
input: Fill in: selectivity ratio of O=C(OCCCCCCCCC[P+](c1ccccc1)(c1ccccc1)c1ccccc1)c1ccc(O)cc1O.[Br-] is ___
output: 11.5

====

The entries below come with measured selectivity ratio values attached.
assay.notes: Selectivity index, ratio of CC50 for HFF cells to EC50 for bloodstream trypomastigote stage of wild-type Trypanosoma brucei brucei Lister 427
Assay type: toxicity
run.parameters: human, read-out: Ratio CC50/EC50
# respond with the number and nothing more

Here is how some compounds turned out for selectivity ratio.
> print(dat)
                            molecule.smiles  measured.endpoint  recorded.number
1  O=C(OCCCCCCCCCCCC[n+]1cccc2ccccc21)c1ccc(O)cc1O.[Br-]  selectivity ratio              609
2  O=C(OCCCCCCCCCCCCCCCC[n+]1cccc2ccccc21)c1ccc(O)cc1O.[Br-]  selectivity ratio             2410
3  O=C(OCCCCCCCCCCCCCCCC[P+](c1ccccc1)(c1ccccc1)c1ccccc1)c1ccc(O)cc1O.[Br-]  selectivity ratio            27700
4  O=C(OCCCCCCCCCCCCCC[P+](c1ccccc1)(c1ccccc1)c1ccccc1)c1ccc(O)cc1O.[Br-]  selectivity ratio            23400

input: Fill in: selectivity ratio of O=C(OCCCCCCCCCCCCCC[n+]1cccc2ccccc21)c1ccc(O)cc1O.[Br-] is ___
output: 1660

====

assay.notes: Resistance factor, ratio of EC50 for diminazene, pentamidine and melaminophenyl arsenical-resistant bloodstream trypomastigote stage of Trypanosoma brucei brucei B48 harboring TbAT1 deletion mutant to EC50 for bloodstream trypomastigote stage of wild-type Trypanosoma brucei brucei Lister 427
Assay type: functional
Class boundaries, taken from values of Ratio EC50, are as follows: low group: < 0.9; middle group: ≥ 0.9 and < 1; high group: ≥ 1

# example entries with known answers
> print(dat)
                            molecule.smiles   group.label
1  O=C(OCCCCCCCCC[P+](c1ccccc1)(c1ccccc1)c1ccccc1)c1ccc(O)cc1O.[Br-]    high group
2  O=C(OCCCCCCCCCCCC[n+]1cccc2ccccc21)c1ccc(O)cc1O.[Br-]    high group
3  O=C(OCCCCCCCCCCCC[P+](c1ccccc1)(c1ccccc1)c1ccccc1)c1ccc(O)cc1O.[Br-]  middle group
4  O=C(OCCCCCCCC[P+](c1ccccc1)(c1ccccc1)c1ccccc1)c1ccc(O)cc1O.[Br-]  middle group
5  BrCCCCCCCCCC[P+](c1ccccc1)(c1ccccc1)c1ccccc1.[Br-]     low group
6  O=C(OCCCCCCCCCC[P+](c1ccccc1)(c1ccccc1)c1ccccc1)c1ccc(O)cc1O.[Br-]     low group

input: Input O=C(OCCCCCCCCCCCCBr)c1ccc(O)cc1O ; output its category
output: high group

input: Same read-out for O=C(OCCCCCCCCCCCCCCCCBr)c1ccc(O)cc1O ?
output: high group

input: Same read-out for N=C(N)c1ccc(OCCCCCOc2ccc(C(=N)N)cc2)cc1 ?
output: high group

input: Same read-out for O=COCCCCCCCCCCOC(=O)c1ccc(O)cc1O ?
output: low group

input: Same read-out for O=C(OCCCCCCCCCCCCCC[n+]1cccc2ccccc21)c1ccc(O)cc1O.[Br-] ?
output: high group

input: Same read-out for O=C(OCCCCCCCCCCCCCC[P+](c1ccccc1)(c1ccccc1)c1ccccc1)c1ccc(O)cc1O.[Br-] ?
output: low group
